target: hCRTH2 (Homo sapiens); construct: expressed in transfected cells; host or cells: HEK (human embryonic kidney) cells expressing hCRTH2; membrane preparation; test: Radioligand binding assay ([3H]PGD2 competition, HEK-hCRTH2 membranes); conditions: [3H]PGD2 binding, rated A-E (Table A)
pKi: −log10 of the molar value.
Exercise: state measured pKi for each of the molecules provided.

Known pKi results, listed for orientation:
Q) Notebook: pull reported pKi for hCRTH2 (Homo sapiens), entry O=C(O)CCCCc1nc2cc(C(=O)N3CC(c4ccccc4)C3)ccc2nc1-c1ccc(C(F)(F)F)cc1
A) 8.70 to 10.00

Q) Notebook: pull reported pKi for hCRTH2 (Homo sapiens), entry O=C(O)CCCCc1nc2cc(C(=O)NCc3ccccn3)ccc2nc1-c1ccccc1 [15AF]
A) 7.70 to 8.68

Q) Notebook: pull reported pKi for hCRTH2 (Homo sapiens), entry O=C(O)CCCCc1nc2cc(C(=O)N3CCC(c4ccccc4)C3)ccc2nc1-c1ccc(C(F)(F)F)cc1 (centres unmarked) [compound 26]
A) 8.70 to 10.00

Fill in pKi for each of the 5 molecules listed.
1. O=C(O)CCCCc1nc2cc(C(=O)N3CC=C(c4ccc(Cl)cc4)CC3)ccc2nc1-c1ccc(F)cc1
2. CC(CCCc1nc2cc(C(=O)NCc3ccc(C#N)cc3)ccc2nc1-c1ccc(F)cc1)C(=O)O (centres unmarked)
3. NC(=O)c1ccc2nc(-c3ccccc3)c(CCCCC(=O)O)nc2c1
4. Cc1ccc([C@@H](C)NC(=O)c2ccc3nc(-c4ccccc4)c(CCCCC(=O)O)nc3c2)cc1 [15AY]
5. C[C@H](NC(=O)c1ccc2nc(-c3ccc(Cl)cc3)c(CCc3cccc(CC(=O)O)c3)nc2c1)c1ccc(F)cc1 [19H]

A)
7.70 to 8.68
7.70 to 8.68
6.70 to 7.70
7.70 to 8.68
7.70 to 8.68

====

Exercise: state measured pKi for each of the compounds provided.
Molecular target: hCRTH2 (Homo sapiens)
Construct: expressed in transfected cells; host or cells: HEK (human embryonic kidney) cells expressing hCRTH2; membrane preparation
Sequence (Q9Y5Y4 1-395): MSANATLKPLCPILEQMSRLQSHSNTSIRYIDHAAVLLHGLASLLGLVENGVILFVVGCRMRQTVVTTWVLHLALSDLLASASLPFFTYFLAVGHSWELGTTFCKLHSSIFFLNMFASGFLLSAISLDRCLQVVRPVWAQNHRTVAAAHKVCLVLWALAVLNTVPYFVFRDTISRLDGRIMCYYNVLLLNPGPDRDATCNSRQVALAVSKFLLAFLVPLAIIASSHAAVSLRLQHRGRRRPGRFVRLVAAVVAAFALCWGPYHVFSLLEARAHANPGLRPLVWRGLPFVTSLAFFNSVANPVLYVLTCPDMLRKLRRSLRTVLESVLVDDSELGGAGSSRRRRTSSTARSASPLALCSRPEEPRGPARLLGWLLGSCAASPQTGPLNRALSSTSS
Experiment: Radioligand binding assay ([3H]PGD2 competition, HEK-hCRTH2 membranes)
Conditions: [3H]PGD2 binding, rated A-E (Table A)
pKi: −log10 of the molar value.

Known pKi results, listed for orientation:
Q) So what's the measured pKi for this one? CC(=O)c1ccccc1-c1nc2ccc(C(=O)N3CCC(c4ccccc4)CC3)cc2nc1CCCCC(=O)O [26U]
A) 7.70 to 8.68

Q) So what's the measured pKi for this one? O=C(O)CCCNc1nc2cc(C(=O)N3CCN(c4ccc(Cl)cc4)CC3)ccc2nc1-c1ccccc1 [44L]
A) 7.70 to 8.68

Q) So what's the measured pKi for this one? O=C(N[C@@H]1CCCc2ccccc21)c1ccc2nc(-c3ccccc3)c(CCCC(F)C(=O)O)nc2c1 (single isomer, unassigned) [38A]
A) 6.70 to 7.70

Q) So what's the measured pKi for this one? O=C(O)CCCCc1nc2cc(C(=O)N3CC(c4nc5ccccc5[nH]4)C3)ccc2nc1-c1ccc(F)cc1
A) 7.70 to 8.68

Q) So what's the measured pKi for this one? O=C(O)CCCCc1nc2cc(C(=O)NCc3ccc(C(F)(F)F)cc3)ccc2nc1-c1ccc(Cl)cc1 [16U]
A) 8.70 to 10.00

Q) So what's the measured pKi for this one? O=C(O)CCCCc1nc2cc(C(=O)Nc3ccccc3F)ccc2nc1-c1ccc(F)cc1
A) 6.15 to 6.70

Fill in pKi for each of the 5 compounds listed.
1. CC(CCCc1nc2cc(C(=O)N[C@@H](C)c3ccc(F)cc3)ccc2nc1-c1ccc(Cl)cc1)C(=O)O (stereo partly shown)
2. C[C@@H](NC(=O)c1ccc2nc(-c3ccc(C(F)(F)F)cc3)c(CCCCC(=O)O)nc2c1)c1cccc(-c2ccccc2)c1
3. O=C(O)CCCNc1nc2cc(C(=O)N[C@@H]3CCCc4cc(F)ccc43)ccc2nc1-c1ccccc1 [44E]
4. CC(C)C(=O)c1ccc2nc(-c3ccc(F)cc3)c(CCCCC(=O)O)nc2c1
5. O=C(O)CCCCc1nc2cc(C(=O)NC3(c4ccccc4)CC3)ccc2nc1-c1ccccc1 [15AE]

A)
["7.70 to 8.68", "6.70 to 7.70", "7.70 to 8.68", "8.70 to 10.00", "7.70 to 8.68"]

Fill in pKi for each of the 5 compounds listed.
1. O=C(O)CCCCc1nc2cc(C(=O)N3CCC(c4ccccc4)CC3)ccc2nc1-c1ccsc1 [26S]
2. O=C(O)CCCCc1nc2cc(C(=O)N[C@@H]3CCCc4cc(F)ccc43)ccc2nc1-c1ccc(Cl)cc1
3. COc1ccc(-c2nc3ccc(C(=O)N4CCC(c5ccccc5)CC4)cc3nc2CCCCC(=O)O)cc1 [26o]
4. O=C(O)CCCCc1nc2cc(C(=O)N[C@@H](c3ccc(Cl)cc3)C(F)(F)F)ccc2nc1-c1ccc(F)cc1
5. O=C(O)Cc1cccc(CCCc2nc3cc(C(=O)N4CCC(c5ccccc5)CC4)ccc3nc2-c2ccc(Cl)cc2)c1

A)
["8.70 to 10.00", "8.70 to 10.00", "8.70 to 10.00", "8.70 to 10.00", "7.70 to 8.68"]
